Data credit: paper PMC12699829

- ASSAY INFO: T1 and T2 relaxivity measurements at 9.4 T (400 MHz NMR)
- Format: physicochemical
- PROTOCOL CONDITIONS: PBS buffer pH 7.4, 37 °C, with Gln
- Method: The effectiveness of a contrast agent depends on its “relaxivity”, which is measured in units of mM^−1 s^−1, and quantifies how much a given concentration of the contrast agent improves water relaxation rates. T1 and T2 relaxivities are denoted r1 and r2, respectively, and are calculated according to eqn (1):1 [drawing 1] […] Optimized 90° and 180° pulse widths were determined on the day of the experiment, and typically spanned 16‒2 0 μs (90° pulse width) and 32‒4 0 μs (180° pulse width). […]
REPORTED METRIC: r2 (Holo) (mM⁻¹ s⁻¹)
Please state the figure in mM⁻¹ s⁻¹; there is no need to write the unit.

Please look up its r2 (Holo): [Dy(DOTA-mal^N)]72-N127Y: swArM: Dy(DOTA-mal^N) on T72C/N127Y double variant of GlnBP (conjugate, UniProt P0AEQ3 23-248, looked up, variant T72C N127Y, Dy(DOTA-malN) at Cys72, swArM: Dy(DOTA-mal^N) on T72C/N127Y double variant of GlnBP) Glutamine-binding periplasmic …: ADKKLVVATDTAFVPFEFKQGDKYVGFDVDLWAAIAKELKLDYELKPMDFSGIIPALQTKNVDLALAGITICDERKKAIDFSDGYYKSGLLVMVKANNNDVKSVKDLDGKVVAVKSGTGSVDYAKAYIKTKDLRQFPNIDNAYMELGTNRADAVLHDTPNILYFIKTAGNGQFKAVGDSLEAQQYGIAFPKGSDELRDKVNGALKTLRENGTYNEIYKKWFGTEPK
9.1
